- assay_system: T1, mouse GLP-1 receptor endogenously expressed in βTC6 cells (mouse, UniProt O35659 22-463)
- T1 sequence (looked up): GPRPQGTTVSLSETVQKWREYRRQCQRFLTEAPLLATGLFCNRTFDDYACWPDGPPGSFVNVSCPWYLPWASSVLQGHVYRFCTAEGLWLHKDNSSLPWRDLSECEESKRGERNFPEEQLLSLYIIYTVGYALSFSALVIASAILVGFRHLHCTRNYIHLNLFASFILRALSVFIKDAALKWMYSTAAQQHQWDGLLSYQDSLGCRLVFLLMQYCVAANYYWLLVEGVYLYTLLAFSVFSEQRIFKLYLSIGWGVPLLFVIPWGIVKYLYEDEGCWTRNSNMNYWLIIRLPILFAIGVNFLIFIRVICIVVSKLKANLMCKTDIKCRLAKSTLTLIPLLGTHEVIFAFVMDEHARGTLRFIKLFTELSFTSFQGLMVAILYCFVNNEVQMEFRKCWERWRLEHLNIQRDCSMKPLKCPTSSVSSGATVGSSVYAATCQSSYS
- assay_protocol: cell-based or functional assay
// reported % bioactivity of reference (reference compound 1) for each item listed
Please respond with the number in % and leave the unit unwritten.

Form: binder = HAEGTFTSDVSSYXEGQAAKEFIAWLVKGRG (Y^u at position 14 (urea residue with tyrosine side chain)) [Compound 44] ; % bioactivity of reference (reference compound 1) = 150

Form: binder = HAEGTFTSDVSSYLEGQXAKEFIAWLVKGRG (A^u at position 18 (urea residue with alanine side chain)) [Compound 45] ; % bioactivity of reference (reference compound 1) = 200

Form: binder = HAEGTFTSDVSSYLEGQAAKEFIAWLVXGRG (K^u at position 28 (urea residue with lysine side chain)) [Compound 46] ; % bioactivity of reference (reference compound 1) = 157

Form: binder = HXEGTFTSDVSSYLEGQAAKEFIAWLVKGRG (A^c at position 2 (N,N'-linked carbomyl / carbamate residue with alanine side chain)) [Compound 43] ; % bioactivity of reference (reference compound 1) = 9
